- tgt: Tyrosine-protein kinase BTK (Homo sapiens, UniProt Q06187)
- Sequence (Q06187 whole entry, the tested form may be a part): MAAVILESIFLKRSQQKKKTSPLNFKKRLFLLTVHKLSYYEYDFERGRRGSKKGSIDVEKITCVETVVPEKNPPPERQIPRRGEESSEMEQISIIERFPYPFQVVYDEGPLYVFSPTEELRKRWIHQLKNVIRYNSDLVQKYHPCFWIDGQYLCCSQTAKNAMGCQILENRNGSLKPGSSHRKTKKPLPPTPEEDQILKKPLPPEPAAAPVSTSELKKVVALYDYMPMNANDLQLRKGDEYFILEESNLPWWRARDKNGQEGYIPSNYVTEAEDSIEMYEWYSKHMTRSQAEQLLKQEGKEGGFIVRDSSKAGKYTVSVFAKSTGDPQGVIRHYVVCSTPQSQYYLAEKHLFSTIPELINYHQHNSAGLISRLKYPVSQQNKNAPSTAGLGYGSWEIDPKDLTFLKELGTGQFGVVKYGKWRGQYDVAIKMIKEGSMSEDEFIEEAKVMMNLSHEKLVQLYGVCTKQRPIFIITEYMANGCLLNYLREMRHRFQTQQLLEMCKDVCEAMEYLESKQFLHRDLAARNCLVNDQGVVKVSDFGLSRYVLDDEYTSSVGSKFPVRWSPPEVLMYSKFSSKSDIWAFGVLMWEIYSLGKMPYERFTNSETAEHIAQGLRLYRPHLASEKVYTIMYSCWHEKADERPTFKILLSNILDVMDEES
- assay-summary: Inhibition of wild type N-terminal GST tagged BTK (unknown origin) (2 to 659 residues) expressed in sf21 insect cell using TK as substrate incubated for 50 mins in presence of ATP by HTRF assay

[
  {
    "cpd-smiles": "COc1ccc2cc(C(=O)Nc3ccc(C)c(C(=O)Nc4cnc(Nc5cccc(N)c5)nc4)c3)ccc2c1",
    "unit-symbol": "nM",
    "IC50": 63.8
  },
  {
    "cpd-smiles": "Cc1ccc(NC(=O)c2ccc3cc(O)ccc3c2)cc1C(=O)Nc1cnc(Nc2cccc(N)c2)nc1",
    "unit-symbol": "nM",
    "IC50": 212
  },
  {
    "cpd-smiles": "Cc1ccc(NC(=O)c2ccc3cnccc3c2)cc1C(=O)Nc1cnc(Nc2cccc(NC3CCN(C(=O)CF)CC3)c2)nc1",
    "unit-symbol": "nM",
    "IC50": 63.4
  }
]
